Collected from the literature: pIC50 of various compounds toward Prostaglandin G/H synthase 2 (Mus musculus).
pIC50: −log10 of the molar value.

Structure String: CNc1cc(-c2[nH]c(-c3ccc(F)c(NC)c3)c3c2C2CCC3C2)ccc1F
pIC50: < 7.00
//
Structure String: N#Cc1ccc(C2=C(c3ccnc(Cl)c3)C(=O)OC2)cc1
pIC50: < 4.60
//
Structure String: CCSc1ncc(-c2ccc(S(C)(=O)=O)cc2)n1-c1ccccc1
pIC50: < 4.60
//
Structure String: Cc1ccc(C2=C(c3ccccc3F)COC2=O)cc1
pIC50: < 4.60
